Source of measurements: ChEMBL document CHEMBL5725430

- experimental_system: Phosphatidylinositol 4,5-bisphosphate 3-kinase catalytic subunit alpha isoform (Homo sapiens, UniProt P42336)
- Sequence (P42336 whole entry, canonical isoform): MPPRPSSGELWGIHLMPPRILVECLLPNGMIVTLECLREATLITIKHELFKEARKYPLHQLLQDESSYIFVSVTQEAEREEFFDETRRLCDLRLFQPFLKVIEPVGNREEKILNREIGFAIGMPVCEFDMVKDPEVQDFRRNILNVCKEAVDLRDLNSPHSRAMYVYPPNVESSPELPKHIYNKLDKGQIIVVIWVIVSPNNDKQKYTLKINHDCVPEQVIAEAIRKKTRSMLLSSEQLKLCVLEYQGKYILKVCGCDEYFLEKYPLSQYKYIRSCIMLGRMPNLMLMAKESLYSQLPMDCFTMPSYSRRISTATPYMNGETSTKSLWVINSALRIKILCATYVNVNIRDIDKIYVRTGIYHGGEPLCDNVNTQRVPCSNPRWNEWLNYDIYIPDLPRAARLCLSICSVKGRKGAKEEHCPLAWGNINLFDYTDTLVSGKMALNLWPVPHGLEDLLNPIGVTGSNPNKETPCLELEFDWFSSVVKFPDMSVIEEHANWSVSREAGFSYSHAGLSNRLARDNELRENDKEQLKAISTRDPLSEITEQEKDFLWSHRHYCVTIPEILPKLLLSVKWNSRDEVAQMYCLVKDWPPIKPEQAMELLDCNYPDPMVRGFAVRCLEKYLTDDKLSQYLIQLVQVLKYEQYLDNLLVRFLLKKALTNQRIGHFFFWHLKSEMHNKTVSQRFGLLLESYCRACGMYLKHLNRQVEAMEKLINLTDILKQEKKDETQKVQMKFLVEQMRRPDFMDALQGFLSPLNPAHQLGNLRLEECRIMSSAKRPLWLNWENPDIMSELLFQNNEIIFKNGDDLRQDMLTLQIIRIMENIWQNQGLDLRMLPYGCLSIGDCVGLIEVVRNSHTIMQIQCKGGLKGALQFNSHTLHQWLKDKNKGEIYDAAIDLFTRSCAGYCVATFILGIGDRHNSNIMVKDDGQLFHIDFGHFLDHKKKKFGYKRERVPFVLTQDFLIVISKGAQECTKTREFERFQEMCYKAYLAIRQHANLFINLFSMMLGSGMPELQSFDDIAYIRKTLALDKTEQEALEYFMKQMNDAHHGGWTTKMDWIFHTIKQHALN
- assay_details: The final concentrations of ATP and phosphatidyl inositol in the assay are 5 μM and 6 μg/mL, respectively. The reaction is started by the addition of PI3 kinase, e.g. PI3 kinase 6.p110δ.The components of the assay are added per well as follows 10 μl test compound in 5% DMSO per well in columns 2-1. Total activity is determined by addition 10 μl of 5% vol/vol DMSO in the first 4 wells of column 1 and the last 4 wells of column 12. The background is determined by addition of 10 μM control compound to the last 4 wells of column 1 and the first 4 wells of column 12. 2 mL Assay mix are prepared per plate 1.912 mL of HEPES assay buffer 8.33 μl of 3 mM stock of ATP giving a final concentration of 5 μM per well 1 μl of [33P]ATP on the activity date giving 0.05 μCi per well 30 μl of 1 mg/mL PI stock giving a final concentration of 6 μg/mL per well 5 μl of 1 M stock MgCl2 giving a final concentration of 1 mM per well 20 μl of the assay mix are added per well. 2 mL Enzyme mix are prepared per plate (x* μl PI3 kinase p110(3 in 2 mL of kinase buffer). The Enzyme mix is kept on ice during addition to the assay plates. 20 μl ‘Enzyme mix’ are added/well to start the reaction. The plate is then incubated at room temperature for 90 minutes. The reaction is terminated by the addition of 50 μl WGA-SPA bead (wheat germ agglutinin-coated Scintillation Proximity Assay beads) suspension per well. The assay plate is sealed using TopSeal-S (heat seal for polystyrene microplates, PerkinElmer LAS [Deutschland] GmbH, Rodgau, Germany) and incubated at room temperature for at least 60 minutes. The assay plate is then centrifuged at 1500 rpm for 2 minutes using the Jouan bench top centrifuge (Jouan Inc., Nantes, France). The assay plate is counted using a Packard TopCount, each well being counted for 20 seconds. The volume of enzyme is dependent on the enzymatic activity of the batch in use.In a more preferred assay, the kinase reaction is performed in a final volume of 10 μl per well of a low volume non-binding CORNING, 384 well black plate (Cat. No. #3676). The final concentrations of ATP and phosphatidyl inositol (PI) in the assay are 1 μM and 10 μg/mL, respectively. The reaction is started by the addition of ATP.The components of the assay are added per well as follows:50 nl test compounds in 90% DMSO per well, in columns 1-20, 8 concentrations (⅓ and 1/3.33 serial dilution step) in single. Low control: 50 nl of 90% DMSO in half the wells of columns 23-24 (0.45% in final). High control: 50 nl of reference compound (e.g. compound of Example 7 in WO 2006/122806) in the other half of columns 23-24 (2.5 μM in final). Standard: 50 nl of reference compound as just mentioned diluted as the test compounds in columns 21-22. 20 mL buffer are prepared per assay 200 μl of 1M TRIS HCl pH7.5 (10 mM in final) 60 μl of 1M MgCl2 (3 mM in final) 500 μl of 2M NaCl (50 mM in final) 100 μl of 10% CHAPS (0.05% in final) 200 μl of 100 mM DTT (1 mM in final) 18.94 mL of nanopure water 10 mL PI are prepared per assay 200 μl of 1 mg/mL 1-alpha-Phosphatidylinositol (Liver Bovine, Avanti Polar Lipids Cat. No. 840042C MW=909.12) prepared in 3% OctylGlucoside (10 μg/mL in final) 9.8 mL of buffer 10 mL ATP are prepared per assay.
pIC50: −log10 of the molar value.
measured_endpoint: pIC50

(1) COc1ncc(N2CCOc3ccc(O[C@H]4CCN(C(=O)C(C)C)C4)cc32)cc1C#N
(2) Cc1cc(N2CCOc3ccc(O[C@H]4CCN(C(=O)c5ccc(=O)[nH]c5)C4)cc32)cnc1Cl
Data request: Between the entries labelled 1 and 2 , which has a larger pIC50 value on record? Pick one and reply with its label.
Data returned: 1
